System: ATP;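 also: ATP exposure 15 min at 22 °C before imaging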
Assay: switch fluorescence ratio, 500 uM ATP over buffer (Cy3 cluster intensity, sum of 5 cycles each) (fold (ratio)); higher = stronger signal-on switching upon ATP binding; sequences stand for … in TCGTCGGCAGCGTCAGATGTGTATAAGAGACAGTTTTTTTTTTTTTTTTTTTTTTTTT…TC
Conditions: aptamer strand: ATP DNA aptamer (quencher-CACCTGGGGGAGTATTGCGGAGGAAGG + anchor), 100 nM annealed; ATP concentration: 500 uM
Param threshold (1) applies to switch fluorescence ratio; output t when value >= threshold, f when value < threshold.

• TTGGGGTAGA = t
• AAAACTTGAA = t
• CAAGAACGGT = f

Please indicate if the recorded switch fluorescence ratio for CTGTAAGGTG meets or exceeds 1.
t

Let us now turn to CTCTCAAGGT
t
